target: HyBcl-2-4; assay: ITC binding of BH3 motif peptides to HyBcl-2-4; design: species or system Hydra vulgaris; settings: read-out: KD (dissociation constant), HyBcl-2-4, MicroCal iTC200, 25°C, tag-free HyBcl-2-4 lacking 30 C-terminal residues, 25 mM Hepes pH 7.5, 150 mM NaCl, means of 3 experiments ± SD, NB: no binding detected
Where no end group is shown, it is not given here.

{"Sequence Content": "SMRRLRAIGACLRAIGDDIQSRSEKS [HyBH3-only]", "Kd, µM": 0.149}
